B1: TPR t1 (parent)
chain: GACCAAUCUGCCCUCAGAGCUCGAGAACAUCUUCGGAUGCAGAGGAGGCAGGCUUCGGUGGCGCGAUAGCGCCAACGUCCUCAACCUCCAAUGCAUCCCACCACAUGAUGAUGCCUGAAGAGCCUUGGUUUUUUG

- Variants of: B1
- assay-comment: polymerase ribozyme fitness, log enrichment relative to wild type (log ratio); higher = more active; in vitro selection for triplet polymerase activity
I'd appreciate it if you could supply polymerase ribozyme fitness (log ratio) values for the items below.
Answers are plain numbers.

Can you give me polymerase ribozyme fitness (log ratio) for all of these, one by one?
1. C8A C56G
2. A2U C72G
3. C64U C85U
4. A6U A74G
5. C22G G117A A119G
6. A2G A16C C89A G120C U133A G135C

[0.28, -1.72, -1.42, -0.0819, -1.55, -2.39]

Can you give me polymerase ribozyme fitness (log ratio) for all of these, one by one?
1. C94G C101U
2. G63A A74U
3. C12U C64U
4. A6G C13U G19U C56A
5. A41U G57U C86G C123U
6. A18C G45A C53U G113A

[-1.46, -3.72, 0.0316, -3.79, -4.13, -3.09]

Reference for the values: the RNAGym collection of RNA variant scans (doi:10.1073/pnas.2313332121)
